Assay Notes: Solubility determinations: limit solubility in purified water by Q 1H NMR
Cond: purified water, 20 °C, water, thermodynamic from solid, Limit solubilities after 48 h at 20° C.; measured by Q 1H NMR: Free acid form equivalent, 50 mg in purified water 1000 μl (20 vol.), 20° C., 48 h

# Compound, solubility at 48 h, µg/mL
measured = [
    ("CCN1CCC(S(=O)(=O)NC(=O)Nc2c3c(cc4c2CCC4)CCC3)CC1 [Form 3D]", 3900),
]

====

The entries below come with measured Limit solubilities after 48 h at 20° C.; measured by Q 1H NMR: Free acid form equivalent values attached.
Quantity Name: Limit solubilities after 48 h at 20° C.; measured by Q 1H NMR: Free acid form equivalent (mg/mL)

# Molecule, U, Data Value
data = [
    ("CCN1CCC(S(=O)(=O)NC(=O)Nc2c3c(cc4c2CCC4)CCC3)CC1 [Form 3A]", "mg/mL", 38.0),
    ("CCN1CCC(S(=O)(=O)NC(=O)Nc2c3c(cc4c2CCC4)CCC3)CC1 [Form 3G]", "mg/mL", 1.5),
    ("CCN1CCC(S(=O)(=O)NC(=O)Nc2c3c(cc4c2CCC4)CCC3)CC1 [Form 3F]", "mg/mL", 2.1),
    ("CCN1CCC(S(=O)(=O)NC(=O)Nc2c3c(cc4c2CCC4)CCC3)CC1 [Form 3E]", "mg/mL", 3.3),
    ("CCN1CCC(S(=O)(=O)NC(=O)Nc2c3c(cc4c2CCC4)CCC3)CC1 [Form 3J]", "mg/mL", 0.0),
    ("CCN1CCC(S(=O)(=O)NC(=O)Nc2c3c(cc4c2CCC4)CCC3)CC1 [Form 3C]", "mg/mL", 4.5),
    ("CCN1CCC(S(=O)(=O)NC(=O)Nc2c3c(cc4c2CCC4)CCC3)CC1 [Form 3H]", "mg/mL", 0.6),
    ("CCN1CCC(S(=O)(=O)NC(=O)Nc2c3c(cc4c2CCC4)CCC3)CC1 [Form 3B]", "mg/mL", 6.3),
    ("CCN1CCC(S(=O)(=O)NC(=O)Nc2c3c(cc4c2CCC4)CCC3)CC1 [Form 3I]", "mg/mL", 0.3),
]
